Taken from PubChem BioAssay.

# Tested on: TRPC4 beta (transient receptor potential cation channel C4), mouse
# Test: TRPC4 cation channel opening, retest – cell-based, Fluo4 calcium, HEK293 TRPC4beta/mu-opioid, duplicates, 10 µM, confirmation (AID 2426)
# Applied Conditions: Fluo4 calcium fluorescence, at 10 µM
Calls of active or inactive are those of the source.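 How the source made its calls: active means fluorescence ratio normalized to control raised more than 50% in primary screen plus both repeat runs; inactive means the rest.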
Assign a class; possible classes are active, inactive

| Compound | Class |
| --- | --- |
| CCSc1ccccc1C(=O)NCCc1ccccc1 | inactive |
| Cc1ccccc1N1CC(O)(c2cccs2)[N+]2=C1CCCC2 (configuration not stated) | inactive |

Identify the outcome logged in this assay for the compound shown: Cc1cc(OCCN2CCCCC2)nc2ccccc12 inactive

Recorded test outcome, item N#Cc1c(NC(=O)C2CC(Cl)=CCC2C(=O)O)sc2c1CCCCC2 (configuration not stated) inactive

* * *

# Tested on: TRPC4 beta (transient receptor potential cation channel C4), mouse
# Test: potentiation of DAMGO EC20 TRPC4 response – cell-based, Fluo-4, HEK293 TRPC4beta/mu-opioid, confirmation (AID 2555)
# Applied Conditions: DAMGO EC20, Fluo-4 calcium flux, at 10 µM
The source made the active and inactive calls.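 The calls were made as follows: active = primary screen hit whose calcium fluorescence ratio, in both repeats, exceeds the weak agonist control mean by 3 SD; inactive = the rest.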
// classify into True (active), False (inactive)

| Compound | Class |
| --- | --- |
| Cc1cc(OCCn2ccnc2)cc(C)c1Cl | False |

Dear colleague, could you share the recorded outcome for O=C(COC(=O)C1CC1)Nc1nc(-c2ccc(F)c(F)c2)cs1 when you have a moment? False

Could you please tell me the result logged for O=C(C1CC1)N1CCc2cc(S(=O)(=O)NC3CCN(Cc4ccccc4)CC3)ccc21 in this assay? False

Which outcome was assigned to CC(C)Cn1c(O)c(N=NC(=O)c2cccc(S(=O)(=O)N3CCCCC3)c2)c2ccccc21 in this test? True

What classification did Oc1c(CN2CCCCC2)cc(Br)c2cccnc12 end up with in this test? False

Can you look up the reported call for O=C(C1CCN(CC2CC=CCC2)CC1)N(CCc1ccccc1)Cc1ccccc1 (centres undefined) for me? False

What was the test verdict on Cc1nc(Cl)c(Cl)n1CCOc1ccccc1 ? False

Tell me the recorded outcome of this test for CN(Cc1ccccc1)Cc1nc2c(c(=O)n(C)c(=O)n2C)n1CCCc1ccccc1 . False

Outcome logged for CCOc1cc(/C=C2\C(=N)N3N=CSC3=NC2=O)ccc1OS(=O)(=O)c1ccccc1 in this assay: False

Hello, I am checking results. What call was entered for COCCn1c(SCc2ccc(F)cc2)nc2ccccc2c1=O ? False

What was the test verdict on COC(=O)c1cccc(Nc2c3c(nc4ccccc24)CCC3)c1 ? False

# fetch the recorded call for O=C(NC(=S)NNC(=O)c1ccccc1[N+](=O)[O-])c1ccc(Br)cc1 here False

Please let me know the test result on file for CCOc1ccccc1CN1CCC(n2nccc2NC(=O)CCc2ccccc2)CC1 . False

Check the results log: what was the call for C#CC[N+]1(CC#Cc2cccc3ccccc23)CCOCC1 ? True

Name the outcome recorded for Cc1ccc(Cn2c(=N)n(CC(O)c3ccco3)c3ccccc32)cc1 (centres undefined) in the assay. False

Status in this test for COc1ccc(Nc2nc(NCC3CCCO3)c3ccccc3n2)c(OC)c1 (centres undefined) ? False

* * *

# Assayed System: Short transient receptor potential channel 4 (Mus musculus) (UniProt Q9QUQ5)
# Test: calcium flux activators in TRPC4/5HT1a cells, counter-screen for TRPC4 activator project, cell-based, second counter screen, HEK293 TRPC4/5HT1a, Fluo-4 (AID 434977)
# Applied Conditions: Fluo-4 calcium flux, at 10 µM
The source made the active and inactive calls.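 Rule for the calls: active = calcium signal rise above buffer-control mean plus 5 SD in both duplicates, and also a hit in the primary screen; inactive = the rest.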
# valid calls are yes for active, no for inactive; nothing else

Below are worked cases with known answers.
| Molecule | Class |
| --- | --- |
| CSC1=NC2(CCCCC2)C2=C(CCCC2)N1 | no |
| CCOP(=O)(OCC)c1nc(-c2ccc(Cl)cc2Cl)oc1N1CCCCC1 | no |
| Cc1c(Cl)cccc1NC(=S)NCC(c1cccnc1)N(C)C (stereo unspecified) | no |
| O=C1NCN(c2ccccc2)C12CCN(CCCC(c1ccc(F)cc1)c1ccc(F)cc1)CC2 | no |
| O=C(CSc1nnc(-c2ccccc2)o1)c1ccc2c(c1)OCCO2 | no |

Per the records of this test, what outcome belongs to N=c1c(C(=O)NCC2CCCO2)cc2c(=O)n3ccccc3nc2n1Cc1ccc(Cl)cc1 (stereo unspecified) ? no

Lab log entry: Cc1oc(-c2ccccc2Cl)nc1CS(=O)CC(=O)NCCCN1CC(C)CC(C)C1 (stereo unspecified) — outcome as called in the assay? yes

Look up the recorded call for CCOCc1cn(CC(=O)c2ccc(Cl)cc2)c(C)nc1=N in this test. no

Record lookup: outcome of this test for CC1(C#CC[N+]2(C)CCCCC2)CCC2C(O1)c1ccccc1OC2(C)C (stereo unspecified) ? no

Test call, this molecule: CCSC1=N/C(=C\c2ccc(OC)cc2)C(=O)N1 no

# outcome recorded in this test, key = Nc1c(C(=O)c2ccccc2)sc2nsc(SCCN3CCCC3)c12 yes

Please state the recorded outcome for this molecule: Cc1cc2oc(C(=O)N(Cc3cccs3)C3CCS(=O)(=O)C3)cc(=O)c2cc1Cl (stereo unspecified) no

Please let me know the test result on file for CCOc1cccc(CNCCO)c1OCc1ccc(Cl)cc1 . no

GET /call?item= Cc1cc(-c2sccc2C)nc(-n2cccc2)n1 returns the recorded outcome of this test. no

Record request — test call for Cc1cccc(Cn2c(=O)c3c(nc4n3CCCN4Cc3ccccc3)n(C)c2=O)c1 no

Per the records of this test, what outcome belongs to OC(CNCCc1ccc(C(F)(F)F)cc1)COc1ccc2ccccc2c1 (stereo unspecified) ? no

* * *

# Assayed System: Short transient receptor potential channel 4 (Mus musculus) (UniProt Q9QUQ5)
# Test: calcium flux activators in TRPC4/5HT1a cells, counter-screen for TRPC4 activator project, cell-based, second counter screen, HEK293 TRPC4/5HT1a, Fluo-4 (AID 434977)
# Applied Conditions: Fluo-4 calcium flux, at 10 µM
Active and inactive are the calls of the source.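 How the source made its calls: active means calcium signal rise above buffer-control mean plus 5 SD in both duplicates, and also a hit in the primary screen; inactive means the rest.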
Choose one outcome from this list and give only that: active, inactive

A selection of reference data follows.
| Molecule | Class |
| --- | --- |
| CC(C)Cn1c(CN2CCN(C)C(CCO)C2)nc2ccccc21 (centres undefined) | inactive |
| COc1ccccc1C(=O)Nc1ccc2c(c1)CCCN2C(=O)c1cccs1 | inactive |
| O=C(CC1CCCCC1)c1c(O)c2ccccc2oc1=O | active |
| OCC1(CCc2ccccc2)CCN(Cc2cc(Cl)ccc2O)CC1 | inactive |
| CC(C)(C)CC(C)(C)NCC(O)COc1ccc2c(c1)CCC2 (centres undefined) | inactive |

Could you check what this test reported for COc1ccc(CCN(C)C(=O)C2CCCN(C3CCN(Cc4ccccc4)CC3)C2)cc1OC (centres undefined) ? active

Returns: the outcome recorded for C/C(N)=C(/C#N)C(=O)COC(=O)C1CCC(C(C)(C)C)CC1 (centres undefined) in this assay. inactive

// outcome(item) with item = Cc1ccc(S(=O)(=O)/N=C2/NC(=O)/C(=C\c3cc(Br)cc(Br)c3O)S2)cc1 active

Which result was noted for this molecule in the test: COCCn1c(SCC(=O)Nc2ccccc2OC)nc2c([nH]c3ccccc32)c1=O inactive

* * *

# Tested on: TRPC4 (transient receptor potential cation channel C4 beta), mouse
# Test: potentiation of DAMGO EC20 TRPC4 response – cell-based, second round, Fluo-4, HEK293 TRPC4beta/mu-opioid, 1 µM, confirmation (AID 2554)
# Applied Conditions: DAMGO EC20, Fluo-4 calcium flux, at 1 µM; hits give high values
Calls of active or inactive are those of the source.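 How the source made its calls: active means primary screen hit whose fluorescence ratio, in both repeats, exceeds the weak agonist control mean by 3 SD; inactive means the rest.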
Measure Name: potentiation

| Test Smiles | Measure Name | Result |
| --- | --- | --- |
| CCCCOc1ccc(CSC(=N)N)cc1[N+](=O)[O-] | potentiation | inactive |
| Cc1cc(-c2ccc(C)c(S(=O)(=O)N3CCN(c4ccccn4)CC3)c2)on1 | potentiation | inactive |
| O=[N+]([O-])c1cccc(-c2nnc(C3CC3)o2)c1 | potentiation | inactive |

* * *

# Assayed System: Short transient receptor potential channel 4 (Mus musculus) (UniProt Q9QUQ5)
# Test: calcium flux activators in TRPC4/5HT1a cells, counter-screen for TRPC4 activator project, cell-based, second counter screen, HEK293 TRPC4/5HT1a, Fluo-4 (AID 434977)
# Applied Conditions: Fluo-4 calcium flux, at 10 µM; hits give high values
Active and inactive are the calls of the source.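 How the source made its calls: active means calcium signal rise above buffer-control mean plus 5 SD in both duplicates, and also a hit in the primary screen; inactive means the rest.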

| Molecule | activation |
| --- | --- |
| COc1cc2ccccc2cc1C(=O)NCC(c1cccs1)N(C)C (stereo not drawn) | inactive |
| CCOCCCNCc1cc(Br)ccc1OCc1ccccc1 | inactive |
| COc1ccc(CN2CCN(Cc3ccc(C(F)(F)F)cc3)CC2)c(OC)c1 | inactive |

* * *

# Tested on: transient receptor potential cation channel C4 beta (TRPC4), mouse
# Test: TRPC4 cation channel opening, second retest – cell-based, second round, Fluo4, HEK293 TRPC4beta/mu-opioid, 1 µM, confirmation (AID 2461)
# Applied Conditions: Fluo4 calcium fluorescence, at 1 µM
Calls of active or inactive are those of the source.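 How the source made its calls: active means primary screen active and over 50% activation in each of two duplicate runs; inactive means the rest.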
Choose the fitting class; nothing outside True = active, False = inactive is accepted.

| Compound | Class |
| --- | --- |
| Cc1ccc(Nc2cc(C)nc3c(C)cccc23)cc1 | False |

Dear all, I need the recorded test outcome for CCOc1ccc(-n2c(SCC(=O)O)nc3sc4c(c3c2=O)CCCC4)cc1 , thank you. False

Answer briefly: the call reported for COc1cccc(NC(=O)COc2c(F)c(F)c(C(F)(F)F)c(F)c2F)c1 in this assay. False

Kindly provide the recorded test outcome for the following compound: CN(C)CCCN(C(=O)c1ccc(S(=O)(=O)N2CCc3ccccc3C2)cc1)c1nc2ccc(F)cc2s1 False
